Test: Stability of ratio of the mixture of desloratadine polymorphic forms on storage (XRPD)
Format: physicochemical
Settings: 25° C., 60% RH; 1 month (4 weeks)
Measured Parameter: Form 2 (%)

1) Clc1ccc2c(c1)CCc1cccnc1C2=C1CCNCC1 [Example 1 of Stability Tests, desloratadine] : 45
2) Clc1ccc2c(c1)CCc1cccnc1C2=C1CCNCC1 [Example 2 of Stability Tests, desloratadine] : 34
3) Clc1ccc2c(c1)CCc1cccnc1C2=C1CCNCC1 [Example 4 of Stability Tests, desloratadine] : 18
4) Clc1ccc2c(c1)CCc1cccnc1C2=C1CCNCC1 [Example 3 of Stability Tests, desloratadine] : 21
